Value source: patent US20250388565A1

This section presents compounds with their documented DC50 values.
Target: ERα protein (HiBiT-tagged) in ESR1_HiBiT KI MCF7 cells (Homo sapiens, UniProt P03372)
Sequence (P03372 1-595): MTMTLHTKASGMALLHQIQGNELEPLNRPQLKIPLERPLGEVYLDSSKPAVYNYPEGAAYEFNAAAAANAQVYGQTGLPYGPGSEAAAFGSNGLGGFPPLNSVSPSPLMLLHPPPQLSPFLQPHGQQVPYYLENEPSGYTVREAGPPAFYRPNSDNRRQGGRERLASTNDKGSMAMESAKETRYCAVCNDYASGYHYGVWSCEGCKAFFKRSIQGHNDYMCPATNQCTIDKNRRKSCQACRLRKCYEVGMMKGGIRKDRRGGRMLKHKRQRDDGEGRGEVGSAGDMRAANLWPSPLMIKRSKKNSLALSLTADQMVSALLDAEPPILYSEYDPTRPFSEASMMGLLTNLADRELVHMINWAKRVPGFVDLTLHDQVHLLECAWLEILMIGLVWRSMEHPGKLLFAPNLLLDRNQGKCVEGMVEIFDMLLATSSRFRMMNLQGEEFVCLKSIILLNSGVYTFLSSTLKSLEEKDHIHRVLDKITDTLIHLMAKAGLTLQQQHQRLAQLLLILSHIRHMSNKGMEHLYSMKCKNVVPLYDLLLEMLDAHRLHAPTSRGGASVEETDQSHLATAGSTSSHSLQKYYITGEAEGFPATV
Assay: Nano Glo HiBiT Lytic Degradation Assay
Type: cell-based
Conditions: 6 hours with compound, 14-point dose response 1:3, bell-shape curve fit, half-maximal effect of first Hill model, read-out: MCF7 ESR1 HiBiT - (DC50)
recorded-endpoint: DC50

compound | result
COc1cc(N2CCC(CN3CCN(c4ccc5c(c4)CN([C@H]4CCC(=O)NC4=O)C5=O)CC3)CC2)ccc1[C@H]1c2ccc(O)cc2CC[C@H]1c1ccccc1 [Compound I-143] | ≥ 10000 nM
O=C1CC[C@H](N2Cc3cc(N4CCN(CC5CCN(c6ccc([C@@H]7c8ccc(O)cc8CC[C@@H]7c7ccc8c(c7)CCCC8)cc6)CC5)CC4)ccc3C2=O)C(=O)N1 (single isomer, unassigned) [Compound I-59] | 906 nM
O=C1CC[C@H](N2Cc3cc(N4CCC5(CCN(CC6CCN(c7ccc([C@H]8c9ccc(O)cc9CC[C@H]8c8ccccc8)cc7)CC6)CC5)CC4)ccc3C2=O)C(=O)N1 (single isomer, unassigned) [II-18] | ≥ 10000 nM
Cc1cc([C@H]2c3ccc(O)cc3CC[C@H]2c2ccccc2)ccc1N1CCC(CN2CCN(c3ccc4c(c3)CN([C@H]3CCC(=O)NC3=O)C4=O)CC2)CC1 (single isomer, unassigned) [II-43] | 2 nM

---

target: ERα protein (HiBiT-tagged) in ESR1_HiBiT KI MCF7 cells (Homo sapiens, UniProt P03372); assay: Nano Glo HiBiT Lytic Degradation Assay; assay type: cell-based; conditions: 6 hours with compound, 14-point dose response 1:3, bell-shape curve fit, half-maximal effect of first Hill model, read-out: MCF7 ESR1 HiBiT - (DC50)
Reported DC50 values for a set of molecules
recorded-endpoint: DC50 (nM)

molecule | reported-relation | result-number
Cn1c(=O)n([C@@H]2CCC(=O)NC2=O)c2ccc(N3CCN(CC4CCN(c5ccc([C@@H]6c7ccc(O)cc7CO[C@@H]6c6ccccc6)cc5)CC4)CC3)cc21 (single isomer, unassigned) [Compound I-388] | = | 40
Cc1cc(F)cc([C@H]2OCc3cc(O)ccc3[C@H]2c2ccc(N3CCC(CN4CCN(c5ccc6c(c5)CN([C@H]5CCC(=O)NC5=O)C6=O)CC4)CC3)cc2)c1 [Compound I-377] | = | 0.62
CC(C)[C@H]1CC(F)(F)c2cc(O)ccc2[C@H]1c1ccc(N2CCC(CN3CCN(c4ccc5c(c4)CN([C@H]4CCC(=O)NC4=O)C5=O)CC3)CC2)cc1 [Compound I-156] | = | 0.4
C[C@@H]1C[C@H](c2ccccc2)[C@H](c2ccc(N3CCC(CN4CCN(c5ccc6c(c5)CN([C@H]5CCC(=O)NC5=O)C6=O)CC4)CC3)cc2)c2ccc(O)cc21 (single isomer, unassigned) [Compound I-419] | = | 2
O=C1CCC(c2ccc(N3CCN(C4CCN(c5ccc([C@H]6c7ccc(O)cc7CC[C@H]6c6ccccc6)cc5)CC4)CC3)cc2)C(=O)N1 (single isomer, unassigned) [Compound I-41] | = | 370
O=C1CCC(N2Cc3c(ccc(N4CCN(CC5CCN(c6ccc([C@@H]7c8ccc(O)cc8CC[C@@H]7c7ccccc7)cc6)CC5)CC4)c3F)C2=O)C(=O)N1 (single isomer, unassigned) [II-16] | = | 2
O=C1CCN(c2ccc(N3CCC4(CCN(CC5CCN(c6ccc([C@@H]7c8ccc(O)cc8C(F)(F)C[C@@H]7c7ccccc7)cc6)CC5)C4)CC3)cc2)C(=O)N1 [Compound I-292] | = | 0.73
O=C1CCC(N2Cc3cc([C@@H]4CCN(CC5CCN(c6ccc([C@@H]7c8ccc(O)cc8CC[C@@H]7c7ccccc7)cc6)CC5)C[C@H]4F)ccc3C2=O)C(=O)N1 (single isomer, unassigned) [II-88] | = | 2
O=C1CC[C@H](N2Cc3cc(N4CCN(CC5CCN(c6ccc([C@H]7c8ccc(O)cc8CO[C@H]7c7ccc(O)cc7)cc6)CC5)CC4)ccc3C2=O)C(=O)N1 (single isomer, unassigned) [Compound I-360] | = | 0.38
Cc1cc(F)cc([C@@H]2OCc3cc(O)ccc3[C@@H]2c2ccc(N3CCC(CN4CCN(c5ccc6c(c5)CN([C@H]5CCC(=O)NC5=O)C6=O)CC4)CC3)cc2)c1 [Compound I-378] | ≥ | 10000
C[C@H]1O[C@H](C2CCCCC2)[C@@H](c2ccc(N3CCC(CN4CCN(c5ccc6c(c5)CN([C@H]5CCC(=O)NC5=O)C6=O)CC4)CC3)cc2)c2ccc(O)cc21 (single isomer, unassigned) [Compound I-255] | = | 0.87
O=C1CC[C@H](N2Cc3cc(N4CCN(CC5CCN(c6ccc([C@@H]7c8ccc(O)cc8C(F)(F)C[C@@H]7c7ccccc7)cc6)CC5)CC4)ccc3C2=O)C(=O)N1 [Compound I-51] | = | 0.45
Cn1nc(C2CCC(=O)NC2=O)c2ccc(N3CCN(CC4CCN(c5ccc([C@@H]6c7ccc(O)cc7CO[C@@H]6c6ccccc6)cc5)CC4)CC3)cc21 (stereo partly shown) [Compound I-393] | = | 0.36
O=C1CC[C@H](N2Cc3cc(N4CCN(CC5CCN(c6ccc([C@@H]7c8ccc(O)cc8C(F)(F)C[C@@H]7C7CCCCC7)cc6)CC5)CC4)ccc3C2=O)C(=O)N1 [Compound I-99] | = | 0.67
O=C1CC[C@H](N2Cc3cc(N4CCN(CC5CCN(c6ccc([C@H]7c8ccc(O)cc8CO[C@H]7CC7CC7)cc6)CC5)CC4)ccc3C2=O)C(=O)N1 (single isomer, unassigned) [Compound I-231] | ≥ | 10000
O=C1CC[C@H](N2Cc3cc(N4CCN(CC5CCN(c6ccc([C@H]7c8ccc(O)cc8C(F)(F)C[C@H]7c7ccc(C(F)(F)F)cc7)cc6)CC5)CC4)ccc3C2=O)C(=O)N1 [Compound I-330] | = | 35
N#Cc1ccc2c(c1)CC[C@H](c1ccccc1)[C@@H]2c1ccc(N2CCC(CN3CCN(c4ccc5c(c4)CN([C@H]4CCC(=O)NC4=O)C5=O)CC3)CC2)cc1 [Compound I-49] | ≥ | 10000
O=C1CCC(N2Cc3cc([C@@H]4CCN(CC5CCN(c6ccc([C@@H]7c8ccc(O)cc8CC[C@@H]7c7ccccc7)cc6)CC5)C[C@H]4O)ccc3C2=O)C(=O)N1 (single isomer, unassigned) [II-106] | = | 2.82
Cn1c(=O)n([C@@H]2CCC(=O)NC2=O)c2ccc(N3CCN(CC4CCN(c5ccc([C@@H]6c7ccc(O)cc7CC[C@@H]6c6ccccc6)cc5)CC4)CC3)cc21 (single isomer, unassigned) [Compound I-276] | = | 0.5

---

target: ERα protein (HiBiT-tagged) in ESR1_HiBiT KI MCF7 cells (Homo sapiens); experiment: Nano Glo HiBiT Lytic Degradation Assay; type: cell-based; settings: 6 hours with compound, 14-point dose response 1:3, bell-shape curve fit, half-maximal effect of first Hill model, read-out: MCF7 ESR1 HiBiT - (DC50)

compound | reported-relation | DC50 / nM
O=C1CC[C@H](N2Cc3cc(N4CCN(C[C@@H]5CCCN(c6ccc([C@@H]7c8ccc(O)cc8CC[C@@H]7c7ccccc7)cc6)C5)CC4)ccc3C2=O)C(=O)N1 (single isomer, unassigned) | ≥ | 10000
COc1cc(N2CCC(CN3CCN(c4ccc5c(c4)CN([C@H]4CCC(=O)NC4=O)C5=O)CC3)CC2)ccc1[C@@H]1c2ccc(O)cc2CC[C@@H]1C1CCCCC1 | = | 1.43
O=C1CC[C@H](N2Cc3cc(N4CCN(CC5CCN(c6ccc([C@@H]7c8ccc(O)cc8C(F)(F)C[C@@H]7c7ccccc7)c(F)c6)CC5)CC4)ccc3C2=O)C(=O)N1 | = | 0.33
O=C1CC[C@H](N2Cc3cc(N4CCN(CC5CCN(c6ccc([C@@H]7c8ccc(O)cc8CO[C@@H]7C7CCCCC7)cc6)CC5)CC4)ccc3C2=O)C(=O)N1 | = | 0.49
Cn1ccc([C@@H]2CCc3cc(O)ccc3[C@@H]2c2ccc(N3CCC(CN4CCN(c5ccc6c(c5)CN([C@H]5CCC(=O)NC5=O)C6=O)CC4)CC3)cc2)n1 (single isomer, unassigned) [Compound I-29] | = | 0.14
O=C1CC[C@H](N2Cc3cc(N4CCN(CC5CCN(c6ccc([C@@H]7c8ccc(O)cc8CC[C@@H]7C78CC9CC(CC(C9)C7)C8)cc6)CC5)CC4)ccc3C2=O)C(=O)N1 | = | 8
CC(C)(O)[C@H]1CCc2cc(O)ccc2[C@H]1c1ccc(N2CCC(CN3CCN(c4ccc5c(c4)CN([C@H]4CCC(=O)NC4=O)C5=O)CC3)CC2)cc1 | = | 2
C[C@]1(c2ccccc2)CCc2cc(O)ccc2[C@H]1c1ccc(N2CCC(CN3CCN(c4ccc5c(c4)CN([C@H]4CCC(=O)NC4=O)C5=O)CC3)CC2)cc1 | = | 0.42
O=C1CCC(c2ccc(N3CCN(CC4CCN(c5ccc([C@@H]6c7ccc(O)cc7CC[C@@H]6c6ccccc6)cc5)CC4)CC3)cc2)C(=O)N1 (stereo partly shown) | = | 469
C[C@H]1CN(CC2CCN(c3ccc([C@@H]4c5ccc(O)cc5CC[C@@H]4c4ccccc4)cc3)CC2)CCN1c1ccc2c(c1)CN([C@H]1CCC(=O)NC1=O)C2=O (single isomer, unassigned) | = | 5
